test_target: SbnE (Staphylococcus aureus)
Assay type: biochemical, S. aureus
condition_description: read-out: Ki, SbnE, with respect to polyamine substrate
pKi: −log10 of the molar value.
measure_name: pKi

1. CCC(=O)[C@H](C)C[C@@H](C)C[C@H](C)CC[C@@H](O)C[C@@H](O)[C@@H](CC(C)C)[C@@H](O)c1cc(O)cc(O)c1 [BmcA, baulamycin A] | 3.68

----------
test_target: AsbA (Bacillus anthracis, UniProt A0A0F7RJ52)
Sequence (A0A0F7RJ52 whole entry, looked up): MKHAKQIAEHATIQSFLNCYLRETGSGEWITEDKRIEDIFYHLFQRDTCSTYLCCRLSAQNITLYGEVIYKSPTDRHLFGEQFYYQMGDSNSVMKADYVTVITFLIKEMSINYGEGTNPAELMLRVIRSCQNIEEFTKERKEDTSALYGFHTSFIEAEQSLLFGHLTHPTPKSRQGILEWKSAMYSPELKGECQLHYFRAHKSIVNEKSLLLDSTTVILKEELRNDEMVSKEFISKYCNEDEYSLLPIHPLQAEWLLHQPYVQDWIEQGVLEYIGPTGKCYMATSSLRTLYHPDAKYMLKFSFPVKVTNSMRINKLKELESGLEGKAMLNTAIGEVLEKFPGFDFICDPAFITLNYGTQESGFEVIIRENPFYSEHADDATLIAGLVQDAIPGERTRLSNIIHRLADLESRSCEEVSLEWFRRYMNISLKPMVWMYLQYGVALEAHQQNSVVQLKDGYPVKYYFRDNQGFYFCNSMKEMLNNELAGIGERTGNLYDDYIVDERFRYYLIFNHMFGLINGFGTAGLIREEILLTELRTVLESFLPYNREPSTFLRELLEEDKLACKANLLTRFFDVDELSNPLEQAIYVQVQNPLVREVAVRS
Assay type: biochemical, B. anthracis
condition_description: read-out: Ki, AsbA, with respect to ATP
pKi: −log10 of the molar value.
measure_name: pKi

1) CCC(=O)[C@H](C)C[C@@H](C)C[C@H](C)CC[C@@H](O)C[C@@H](O)[C@@H](CC(C)C)[C@@H](O)c1cc(O)cc(O)c1 [BmcA, baulamycin A] | 3.64

----------
test_target: AsbA (Bacillus anthracis)
measure_name: IC50 (µM)

1) CCC(=O)[C@H](C)C[C@@H](C)C[C@H](C)CC[C@@H](O)C[C@@H](O)[C@@H](CC(C)C)[C@@H](O)c1cc(O)cc(O)c1 [BmcA, baulamycin A] | 180
2) CC(=O)[C@H](C)C[C@@H](C)C[C@H](C)CC[C@@H](O)C[C@@H](O)[C@@H](CC(C)C)[C@@H](O)c1cc(O)cc(O)c1 [BmcB, baulamycin B] | 200

----------
test_target: AsbA (Bacillus anthracis, UniProt A0A0F7RJ52)
Assay type: biochemical, B. anthracis
condition_description: read-out: Ki, AsbA, with respect to citric acid
pKi: −log10 of the molar value.
measure_name: pKi

1. CCC(=O)[C@H](C)C[C@@H](C)C[C@H](C)CC[C@@H](O)C[C@@H](O)[C@@H](CC(C)C)[C@@H](O)c1cc(O)cc(O)c1 | 3.96

----------
test_target: SbnE (Staphylococcus aureus)
Sequence (Q2G1M9 1-578): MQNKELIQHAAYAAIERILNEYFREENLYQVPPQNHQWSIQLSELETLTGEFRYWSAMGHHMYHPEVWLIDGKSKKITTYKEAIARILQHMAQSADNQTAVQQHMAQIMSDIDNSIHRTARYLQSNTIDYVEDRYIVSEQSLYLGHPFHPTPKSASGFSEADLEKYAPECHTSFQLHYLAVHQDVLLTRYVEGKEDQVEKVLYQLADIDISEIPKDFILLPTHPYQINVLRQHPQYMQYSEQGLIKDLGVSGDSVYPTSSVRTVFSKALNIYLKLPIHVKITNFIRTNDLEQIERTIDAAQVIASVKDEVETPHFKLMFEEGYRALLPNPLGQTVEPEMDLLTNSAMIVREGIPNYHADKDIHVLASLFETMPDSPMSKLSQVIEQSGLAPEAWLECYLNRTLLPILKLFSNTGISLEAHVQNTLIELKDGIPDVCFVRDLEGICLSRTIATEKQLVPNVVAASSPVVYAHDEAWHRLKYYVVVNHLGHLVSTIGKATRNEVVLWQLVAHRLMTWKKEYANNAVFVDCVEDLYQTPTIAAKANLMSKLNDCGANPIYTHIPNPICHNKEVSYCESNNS
Assay type: biochemical, S. aureus
condition_description: read-out: Ki, SbnE, with respect to citric acid
pKi: −log10 of the molar value.
measure_name: pKi

1. CCC(=O)[C@H](C)C[C@@H](C)C[C@H](C)CC[C@@H](O)C[C@@H](O)[C@@H](CC(C)C)[C@@H](O)c1cc(O)cc(O)c1 | 4.30

Just for reference, paper PMC4028973 is where these values come from.
